- System: A. baumannii
- Protocol Text: Transmission Electron Microscopy (TEM) of treated bacteria
- Assay type: cell-based, Acinetobacter baumannii
- Stated Conditions: 128 μg/mL (FIG. 1 legend: 128 μM), treated for an hr
Readout: cell wall structure in TEM photographs

C=C(C(=O)OC)[C@@H]1[C@@H](CCCCCCCC)OC(=O)[C@@H]1O [Compound 13d] : not affected
C=C1C(=O)O[C@H]2C(=O)O[C@H](CCCCCCCC)[C@@H]12 [Compound 10d] : not affected

---

- Test system: MRSA
- Protocol Text: Transmission Electron Microscopy (TEM) of treated bacteria
- Assay type: cell-based, methicillin-resistant Staphylococcus aureus (MRSA)
- Stated Conditions: 128 μg/mL (FIG. 1 legend: 128 μM), treated for an hr
Readout: cell wall structure in TEM photographs

C=C(C(=O)OC)[C@@H]1[C@@H](CCCCCCCC)OC(=O)[C@@H]1O [Compound 13d] : ruptured
C=C1C(=O)O[C@H]2C(=O)O[C@H](CCCCCCCC)[C@@H]12 [Compound 10d] : ruptured

---

- Measured On: UniProt P0A749
- Sequence (P0A749 whole entry): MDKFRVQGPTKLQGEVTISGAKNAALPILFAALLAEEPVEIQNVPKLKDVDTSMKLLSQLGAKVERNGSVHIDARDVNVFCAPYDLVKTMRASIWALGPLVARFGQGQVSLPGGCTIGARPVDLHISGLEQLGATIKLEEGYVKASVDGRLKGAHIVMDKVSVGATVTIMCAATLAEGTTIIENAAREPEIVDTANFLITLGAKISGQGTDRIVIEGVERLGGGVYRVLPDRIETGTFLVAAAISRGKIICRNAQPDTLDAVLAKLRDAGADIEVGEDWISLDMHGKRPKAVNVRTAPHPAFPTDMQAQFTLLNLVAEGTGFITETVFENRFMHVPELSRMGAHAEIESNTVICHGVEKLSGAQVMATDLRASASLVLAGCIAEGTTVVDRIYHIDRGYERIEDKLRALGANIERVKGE
Readout: pIC50
Value format note: pIC50 is -log10 of concentration (mol/L); just state the number.

query: Which pIC50 is listed for C[C@@H]1O[C@@H]1P(=O)(O)O [fosfomycin, reference compound] ?
result: 6.40

---

For S. aureus ATCC 29213, measured MIC is reported for the entries below.
Form entry: value (µg/mL) — number only.

query: Which MIC is listed for C[C@@H]1O[C@@H]1P(=O)(O)O [fosfomycin, reference compound] ?
result: 4

query: And C=C(C(=O)OC)[C@@H]1[C@@H](CCCCCCCC)OC(=O)[C@@H]1O [Compound 13d] ?
result: 32

query: And C=C(C(=O)O)[C@@H]1[C@@H](CCCCCCCC)OC(=O)[C@@H]1O [Compound 14] ?
result: 256

query: And C=C1C(=O)O[C@H]2C(=O)O[C@H](CCCCCCCC)[C@@H]12 [Compound 10d] ?
result: 16

---

- Measured On: MRSA MurA^C119D (Staphylococcus aureus, UniProt Q5HEA0, C119D)
- Protocol Text: MuraA assay (malachite green)
- Procedure: In a standardized assay, MuraA enzymes were pre-incubated with the substrate UNAG and an inhibitor for 10 min at 37° C. To determine the influence of UNAG on the binding process, experiments were performed in the absence of UNAG during pre-incubation period. […] After 10 min, the absorbance at 620 nm was measured using a FlexStation 3 Microplate Reader (Molecular Devices). […]
Assign IC50 to each entry below.
Form entry: value (µM) — number only.

query: Which IC50 is listed for C=C(C(=O)OC)[C@@H]1[C@@H](CCCCCCCC)OC(=O)[C@@H]1O [Compound 13d] ?
result: 7.9

query: And C=C1C(=O)O[C@H]2C(=O)O[C@H](CCCCCCCC)[C@@H]12 [Compound 10d] ?
result: 21.5

---

- Measured On: MRSA MurA^WT (Staphylococcus aureus)
- Protocol Text: MuraA assay (malachite green)
- Stated Conditions: IC50, MurA activity, MRSA MurA wild type 25 nM, UNAG 310 μM, PEP 620 μM, pH 7.6; 5 replicates
Readout: IC50 (µM)
Form entry: value (µM) — number only.

query: Which IC50 is listed for C[C@@H]1O[C@@H]1P(=O)(O)O [fosfomycin, reference compound] ?
result: 1.6

query: And C=C1C(=O)O[C@H]2C(=O)O[C@H](CCCCCCCC)[C@@H]12 [Compound 10d] ?
result: 8.3

query: And C=C(C(=O)OC)[C@@H]1[C@@H](CCCCCCCC)OC(=O)[C@@H]1O [Compound 13d] ?
result: 6.7

src = patent US20160297829A1
